- Tested on: SF-539 CNS
- METHOD_NOTES: NCI tumour cell line growth inhibition, 48 h
QUANTITY_KIND: GI50

{"columns": ["COMPOUND", "OBSERVED_RESULT"],
 "data": [
  ["O=C1Nc2ccc(-c3cccnc3)cc2/C1=C/c1cc(Br)c(O)c(Br)c1", "5.15 µM"],
  ["NC1=NC(c2ccccc2Cl)c2c(n[nH]c2N)N1 (stereo not given)", "57 µM"],
  ["O=C(CI)NC(=O)NC(=O)NCc1ccccc1", "1.92 µM"],
  ["O=C(CCCCN1CCN(CCCCC(=O)Nc2ccccc2C#C/C=C\\C#Cc2ccccc2C(F)(F)F)CC1)Nc1ccccc1C#C/C=C\\C#Cc1ccccc1C(F)(F)F", "10.2 µM"]
]}

Here is the next item to consider.
With SF-539 CNS as the test system, `CCOC(=O)c1cn(C)c2c(OC)c3ccccc3c(OC)c2c1=O` showed GI50 of 34 µM

---

- Test system: K-562 leukemia
- METHOD_NOTES: NCI tumour cell line growth inhibition, 48 h
TGI: recorded values

Example results:
{"columns": ["COMPOUND", "OBSERVED_RESULT"],
 "data": [
  ["CCCCCCCCCC1CC(=O)OC23CCCC(=O)C12O3 (stereo not given)", "> 100 µM"],
  ["S=C(Sc1ccc(Cl)cc1)Sc1ccc(Cl)cc1", "7.63 µM"],
  ["Cc1ccc(C(=O)Nc2ccc(Oc3cc4cnn(C)c4cc3-c3cn[nH]c3)c(F)c2)c(=O)n1-c1ccc(F)cc1", "> 100 µM"],
  ["Nc1ncnc2c1c(-c1ccc(Oc3ccccc3)cc1)nn2CC1SSCC1O (stereo not given)", "7.39 µM"],
  ["C[C@H]1CCC/C=C/[C@@H]2C[C@H](OC3OC(CO)C(O)C(O)C3O)C[C@H]2[C@H](O)/C=C/C(=O)O1 (stereo not given in full)", "> 100 µM"]
]}

For this compound ( `OCc1ccc(-c2ccc(-c3ccc(CO)o3)o2)o1` ), measured TGI is > 100 µM

The reported value for `O=C(OCCN=c1c2ccccc2ccc2ccccc12)c1cc([N+](=O)[O-])cc([N+](=O)[O-])c1` in terms of TGI is > 100 µM

Entry `CN(C)CCCOc1ccc(NC2=C(Cl)C(=O)C(Nc3ccc(OCCCN(C)C)cc3)=C(Cl)C2=O)cc1` — recorded TGI = 0.798 µM

The recorded TGI for entry CCC12CCC[C@@]13C=C[C@H](O3)C(C)(C)C2=O (stereo not given in full) equals > 100 µM

Consider `COC(=O)[C@H](C)NC(=O)[C@H](NS(=O)(=O)c1nc2ccccc2s1)c1ccccc1` . Its measured TGI is > 100 µM

---

- Test system: UO-31 renal
- METHOD_NOTES: NCI tumour cell line growth inhibition, 48 h
Binary call on TGI: Met from 20 µM upward, Not met beneath that.

{"columns": ["MOLECULE", "SYSTEM_NAME", "ASSIGNED_LABEL"],
 "data": [
  ["C=C1C(=O)O[C@@H]2C[C@@]3(C)[C@H](O)CCC(=C)[C@@H]3C[C@H]12", "UO-31 renal", "Met"],
  ["NCCCNc1nc2ccccc2c2c(=O)c3cc(Cl)ccc3sc12", "UO-31 renal", "Not met"],
  ["CC1(C)N=C(/C(Cl)=[N+](/[O-])C(=O)c2ccc(Cl)cc2)C(C)(C)N1O", "UO-31 renal", "Met"],
  ["C/C(=N\\NC(=S)N1CCC1)c1ccccn1", "UO-31 renal", "Not met"],
  ["N#CC(C(=O)Nc1ccccc1)C1=C(Cl)C(=O)c2ccccc2C1=O (stereo not given)", "UO-31 renal", "Met"],
  ["Cn1c2c(c3c(=O)[nH]ncc31)Cc1ccccc1-2", "UO-31 renal", "Met"],
  ["Cc1ccc(C(=O)Nc2ccc(Oc3cc4cnn(C)c4cc3-c3cn[nH]c3)c(F)c2)c(=O)n1-c1ccc(F)cc1", "UO-31 renal", "Met"],
  ["CC(C)OC(=O)C(NC(=O)C(CC(=O)OCc1ccccc1)NC(=O)OCc1ccccc1)NC(=O)C1C(C)(C)CCC1(C)C (stereo not given)", "UO-31 renal", "Not met"]
]}

stdin: Does `N=C(N)n1cc(/C=N/N=C(N)N)cn1` have a reported TGI of at least 20 µM?
stdout: Met

stdin: Could you please find out whether `Cc1ccc(NC(=O)CC/C(CC(=O)C(C)(C)C)=N/NC(=O)c2cc3ccccc3cc2O)cc1C` has TGI that meets 20 µM or exceeds it?
stdout: Met

---

Entries annotated with measured TGI
- Tested on: UACC-257 melanoma
- METHOD_NOTES: NCI tumour cell line growth inhibition, 48 h

# annotated cases, reported TGI shown
{"columns": ["COMPOUND", "TGI"],
 "data": [
  ["CC(C)OC(=O)C(NC(=O)C(CC(=O)OCc1ccccc1)NC(=O)OCc1ccccc1)NC(=O)C1C(C)(C)CCC1(C)C (stereo not given)", "> 60.8 µM"],
  ["O=C1Nc2ccc(-c3cccnc3)cc2/C1=C/c1cc(Br)c(O)c(Br)c1", "9.36 µM"],
  ["COC1=C(OC)C(=O)C(Cc2c(Cl)nc3sccn23)=C(C)C1=O", "16.1 µM"],
  ["Nc1c(C(=O)Nc2ccccc2)sc2nc3c(cc12)C(=O)CCC3", "> 100 µM"],
  ["COC(=O)c1ccc(NC(N)=NCCC(C)(C)c2ccc(C(F)(F)F)cc2)nc1", "4.34 µM"],
  ["BrC1(c2ccccc2)C[n+]2c(-c3ccccc3)cc(-c3ccccc3)cc2-c2ccccc21 (stereo not given)", "2.55 µM"],
  ["CCN1C(=O)N(CC)C2C1NC(=S)N2/N=C/C=C/c1ccccc1 (stereo not given)", "> 100 µM"],
  ["C#Cc1cccc(NC(=O)/C=C\\C(=O)O)c1", "> 100 µM"]
]}

// `COc1cc2c(c3c1c(=O)c1ccccc1n3C)C=C([N+](=O)[O-])C(C)(C)O2` : TGI value = > 48 µM

In plain terms, `C/C(=N/NC(=S)Nc1ccc(C)cc1)c1ccccn1` has a documented TGI of 0.802 µM

---

- System: UACC-62 melanoma
- METHOD_NOTES: NCI tumour cell line growth inhibition, 48 h; in the data active means GI50 below about 0.43 µM; inactive means the rest
Your response should consist of one outcome taken from active, inactive

{"columns": ["MOLECULE", "SYSTEM_NAME", "ASSIGNED_LABEL"],
 "data": [
  ["C[C@]12CCc3nc(Nc4ccc(O)cc4)sc3C1=CC[C@@H]1[C@@H]2CC[C@]2(C)/C(=N/NC(N)=S)CC[C@@H]12", "UACC-62 melanoma", "inactive"],
  ["S=C(Sc1ccc(Cl)cc1)Sc1ccc(Cl)cc1", "UACC-62 melanoma", "inactive"],
  ["OCCNc1nc2ccccc2c2[nH]c3ccccc3c12", "UACC-62 melanoma", "inactive"]
]}

stdin: Which outcome was assigned to Nc1ncnc2c1c(-c1ccc(Oc3ccccc3)cc1)nn2CC1SSCC1O (configuration not stated) in this test?
stdout: inactive

stdin: What outcome does the record of this test show for `O=C(Nc1ccc(-n2cc(-c3ccncc3)c(-c3ccc(Cl)c(O)c3)n2)cc1)c1cc(C(F)(F)F)cc(C(F)(F)F)c1` ?
stdout: inactive

stdin: For C/C(=C/CCC(C)[C@@H]1CC[C@]2(C)C3=C(CC[C@@]12C)[C@@]1(C)CCC(=O)C(C)(C)[C@@H]1CC3)C(=O)O (some centres not stated) , what call appears in the results of this test?
stdout: inactive

stdin: Which outcome was assigned to `COc1ccc(-c2cnc(-c3ccncc3-c3cccc(OC)c3)o2)cc1` in this test?
stdout: active

---

TGI for assorted molecules
- Test system: MALME-3M melanoma
- METHOD_NOTES: NCI tumour cell line growth inhibition, 48 h

{"columns": ["MOLECULE", "OBSERVED_RESULT"],
 "data": [
  ["Cc1ccc(-n2c3nc(=O)n(C)c(=O)c-3nc3ccccc32)c(C)c1", "12.9 µM"],
  ["O=C(N/N=C/c1ccccc1)c1c(F)c(F)c(F)c(F)c1F", "> 100 µM"],
  ["CCCCCCCCCCCCOCC(COP(=O)(O)OCCN=[N+]=[N-])OC(=O)CCCCCCCCCCC (configuration not stated)", "> 100 µM"],
  ["O=C1Nc2ccc(-c3cccnc3)cc2/C1=C/c1cc(Br)c(O)c(Br)c1", "23.9 µM"]
]}

The reported value for `COc1ccc(N(CC(=O)O)N=O)cc1` in terms of TGI is > 100 µM

# TGI of CCOC(=O)C1C(c2ccc(Br)cc2)N(Cc2ccccc2)C(c2ccc(Br)cc2)C(C(=O)OC)S1(=O)=O (configuration not stated) = > 100 µM

These measurements were taken from PubChem BioAssay (NCI).
